- Measured Target: human His6-TfR1, P02786
- Sequence (P02786 89-760): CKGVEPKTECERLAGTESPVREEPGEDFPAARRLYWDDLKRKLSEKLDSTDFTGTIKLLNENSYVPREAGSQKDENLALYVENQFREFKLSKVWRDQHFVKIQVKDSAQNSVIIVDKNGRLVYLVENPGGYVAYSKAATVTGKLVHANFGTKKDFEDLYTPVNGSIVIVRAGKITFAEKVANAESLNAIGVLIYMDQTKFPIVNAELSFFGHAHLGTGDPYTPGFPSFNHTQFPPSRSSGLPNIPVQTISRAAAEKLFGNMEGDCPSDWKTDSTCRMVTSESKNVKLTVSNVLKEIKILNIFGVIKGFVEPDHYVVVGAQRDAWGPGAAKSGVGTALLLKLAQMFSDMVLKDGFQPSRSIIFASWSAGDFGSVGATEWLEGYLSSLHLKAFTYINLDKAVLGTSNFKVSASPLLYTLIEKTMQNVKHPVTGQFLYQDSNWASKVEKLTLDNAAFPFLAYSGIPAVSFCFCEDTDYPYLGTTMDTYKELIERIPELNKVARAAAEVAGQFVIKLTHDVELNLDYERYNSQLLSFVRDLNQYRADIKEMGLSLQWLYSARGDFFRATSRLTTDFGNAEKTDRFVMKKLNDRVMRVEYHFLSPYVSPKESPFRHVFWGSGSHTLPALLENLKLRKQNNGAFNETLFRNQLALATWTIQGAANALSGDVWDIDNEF
- Experiment Notes: SPR
- Measurement Setup: chain shown with the change
Endpoint Name: Kd (nM)
Give bare numbers, in nM.

Exam item: Returns the measured Kd for the input binder. Input: CSPDAHLGCISYC [BCY15468 Ni:A del; Ti:A del; Nii:Ac (N-terminal acetyl cap)]
Marked response: 46
